- system_tested: Arginase-2, mitochondrial (Homo sapiens) (UniProt P78540)
- Sequence (whole entry): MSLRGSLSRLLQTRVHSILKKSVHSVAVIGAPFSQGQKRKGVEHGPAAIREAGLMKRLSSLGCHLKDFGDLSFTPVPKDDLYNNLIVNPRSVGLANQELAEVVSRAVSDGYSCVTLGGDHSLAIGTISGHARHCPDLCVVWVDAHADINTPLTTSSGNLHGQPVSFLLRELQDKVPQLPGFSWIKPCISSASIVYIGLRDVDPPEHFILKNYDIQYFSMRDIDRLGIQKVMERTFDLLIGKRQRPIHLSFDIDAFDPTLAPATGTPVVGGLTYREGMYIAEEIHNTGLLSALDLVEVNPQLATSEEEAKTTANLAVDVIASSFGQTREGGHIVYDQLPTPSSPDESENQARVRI
- assay_text: in vitro enzyme assay to detect the production of urea directly proportional to the activity of Arginase II; also: in the data most compounds retested in dose-response had high values
- Assay type: functional
- Parameters: scale not given: direction of the effect not stated beside the values
- stated_conditions: 33.3 µM
Record form. Attribute: Percent Effect. Fill in for each entry.
Give bare numbers, in %.

As a guide, the following entries are already answered.
CCOC(=O)[C@]12CCCN(Cc3nccs3)C[C@H]1CN(CCN(C)C)C2
7.1
CCCNCc1cn(C)nc1-c1cccnc1
1.74

Answer for every listed entry: what is its Percent Effect? The entries follow.
1. CC(NC(=O)CCCOc1ccccc1Cl)c1ccncc1 (centres undefined)
2. CS(=O)(=O)N1CCC(NC(=O)COc2ccc(Cl)c(Cl)c2)CC1
3. O=C(NCC1CC1)C1CN(C(=O)c2ccncc2)CC12CCOCC2 (centres undefined)
4. Cc1cc(N2CCN(Cc3nccn3C)CC2)cc(C)n1
5. O=C(NCc1ccoc1)NC1CCCN(c2ncccn2)C1 (centres undefined)
6. Cc1ccc(CN(C)CC(=O)NC2(C)CCS(=O)(=O)C2)cc1 (centres undefined)
7. CCO[C@@H]1CO[C@@]2(CCCN(S(=O)(=O)c3cccnc3)C2)C1
8. CCOC(=O)CN1CCC(C(=O)c2cc(F)ccc2F)CC1

## Result
1: -2.27; 2: -2.66; 3: 4.52; 4: -0.883; 5: -8.28; 6: -1.77; 7: 3.64; 8: -1.53

Answer for every listed entry: what is its Percent Effect? The entries follow.
1. COc1cc(S(=O)(=O)N2CCCc3ccccc32)cc(C(=O)O)c1OC
2. CC(C)N(C)CC(=O)N1CCCC(c2ccc(C(=O)O)cc2)C1 (centres undefined)

## Result
[-3.99, -1.05]

Answer for every listed entry: what is its Percent Effect? The entries follow.
1. Cc1cc(CN(C)C(=O)NC2CCS(=O)(=O)C2)no1 (centres undefined)
2. CCN(CC)C(=O)CCNC(=O)Cc1nc(-c2ccco2)oc1C
3. Cc1ccsc1C(=O)N1C[C@@H]2CN(Cc3ccoc3)CCO[C@@H]2C1
4. CCC(C)NC(=O)c1ccccc1-n1cnnn1 (centres undefined)
5. Cc1cccc(-c2noc(CN3CCc4nn(C)c(=O)cc4C3)n2)c1
6. CC(C)c1cc(NCC(O)c2ccc(F)cc2)n2nccc2n1 (centres undefined)
7. OC(CNCCn1cccn1)c1ccc2c(c1)OCCO2 (centres undefined)

## Result
1: 6.11; 2: -0.521; 3: 9.87; 4: 5.21; 5: 3.55; 6: -4.29; 7: 0

====

Record form. Attribute: Percent Effect. Fill in for each entry.
- Organism: Homo sapiens
- assay_text: To identify inhibition of the IFN signalling (Jak-Stat) pathway via expression of an eGFP reporter gene under the control of an IFN-stimulated response element (ISRE) containing MxA promoter.
- Format: functional
- Design: scale not given: direction of the effect not stated beside the values
- stated_conditions: 30 µM
Answers are plain numbers, in %.

As a guide, the following entries are already answered.
CCN(C(=O)COC)C(c1cccnc1)c1cc(C)cc(C)c1 (stereo unspecified)
22.9
O=C(C1CC=CC1)N1CCC2(CC1)CN(Cc1ccccn1)CCO2
-19
COCCN1CC(C(=O)NCc2ccnc(-n3cccn3)c2)CC1=O (stereo unspecified)
23.2
CCn1cc(CN2CCCN(C(=O)c3sccc3C#N)CC2)cn1
-14
O=C(CCc1ccccc1)N1CCn2cc(Cn3cncn3)nc2C1
22.4

The value of Percent Effect measured for the compound Cc1cc(-c2cnn(CCNC(=O)C3CC3)c2C2CC2)on1 turned out to be 17.8

====

- system_tested: Ubiquitin-activating enzyme e1, putative (Leishmania donovani (strain BPK282A1)) (UniProt E9BSI1)
- Sequence (E9BSI1 as listed by the source): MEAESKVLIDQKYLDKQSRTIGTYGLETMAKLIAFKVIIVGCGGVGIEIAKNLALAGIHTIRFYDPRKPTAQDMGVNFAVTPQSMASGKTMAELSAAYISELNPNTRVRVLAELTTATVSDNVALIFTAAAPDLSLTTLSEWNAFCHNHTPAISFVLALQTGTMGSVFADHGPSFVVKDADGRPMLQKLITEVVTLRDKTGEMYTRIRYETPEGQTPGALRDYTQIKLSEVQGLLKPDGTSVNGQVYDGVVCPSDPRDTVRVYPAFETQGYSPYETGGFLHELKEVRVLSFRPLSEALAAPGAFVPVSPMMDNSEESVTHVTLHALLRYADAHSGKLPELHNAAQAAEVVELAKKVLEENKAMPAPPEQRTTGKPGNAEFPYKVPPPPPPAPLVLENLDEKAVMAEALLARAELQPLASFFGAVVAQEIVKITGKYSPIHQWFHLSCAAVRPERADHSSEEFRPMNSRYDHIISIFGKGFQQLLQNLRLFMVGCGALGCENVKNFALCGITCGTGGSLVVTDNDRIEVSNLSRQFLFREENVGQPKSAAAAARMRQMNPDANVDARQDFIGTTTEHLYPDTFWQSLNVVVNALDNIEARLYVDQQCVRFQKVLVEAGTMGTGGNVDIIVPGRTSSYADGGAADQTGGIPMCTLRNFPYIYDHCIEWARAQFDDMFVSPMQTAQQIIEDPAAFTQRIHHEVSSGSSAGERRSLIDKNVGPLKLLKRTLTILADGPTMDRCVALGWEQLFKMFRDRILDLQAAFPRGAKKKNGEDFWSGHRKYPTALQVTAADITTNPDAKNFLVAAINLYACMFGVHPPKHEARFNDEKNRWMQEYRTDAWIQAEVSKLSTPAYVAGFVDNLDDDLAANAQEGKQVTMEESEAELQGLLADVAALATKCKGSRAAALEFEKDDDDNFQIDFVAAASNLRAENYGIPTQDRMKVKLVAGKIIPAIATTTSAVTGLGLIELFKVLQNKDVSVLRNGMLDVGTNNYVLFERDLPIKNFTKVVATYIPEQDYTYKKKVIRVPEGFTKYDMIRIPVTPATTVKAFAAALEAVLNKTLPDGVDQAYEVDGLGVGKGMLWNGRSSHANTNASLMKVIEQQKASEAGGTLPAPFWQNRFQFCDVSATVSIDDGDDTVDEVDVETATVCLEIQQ
- assay_text: Leishmania donovani Ubiquitin Activating Enzyme (LdE1)
- Assay type: functional
- Set-up: scale not given: direction of the effect not stated beside the values
- stated_conditions: 30 µM
Measured potencies and affinities stand elsewhere.
Record form. Attribute: Percent Effect. Fill in for each entry.
Give bare numbers, in %.

As a guide, the following entries are already answered.
CC(C)c1nn(C)c(N2CCOCC2)c1CNCC(=O)N(C)C
12.8
COc1ccccc1C(O)CNCc1c(C(C)C)nn(C)c1N(C)C (stereo unspecified)
15.6
CCN(Cc1ccccc1)C(=O)CN1CCCC(Cn2cncn2)C1 (stereo unspecified)
21.1

Answer for every listed entry: what is its Percent Effect? The entries follow.
1. Cc1nnc(NC(=O)NCc2cccnc2N(C)C)s1
2. COc1cccc(-c2noc(-c3ccc(NCC4CC4)nc3)n2)c1OC
3. Cc1ccoc1C(=O)NC1CCN(Cc2cccc3c2OCCO3)CC1
4. CSc1cccc(CNC(=O)C2CC(=O)N(CCN(C)C)C2)c1 (stereo unspecified)
5. CC(C)c1nc(CN2CCCN(Cc3nnc(C4CC4)o3)CC2)no1
6. CCC(=O)NCCc1cc(N2CCN(C(C)=O)CC2)nc(C2CC2)n1
7. CC(C)c1cccc(CSc2nnc(CN3CCCC3=O)o2)n1
8. CC(=O)N1CCCC1c1cc(N2CCN(C3CCCC3)CC2)cc(C)n1 (stereo unspecified)

## Result
1: 13; 2: 0; 3: 16.5; 4: 5.33; 5: 8; 6: 6.76; 7: -2.67; 8: 17.3

====

Record form. Attribute: Percent Effect. Fill in for each entry.
- system_tested: Ubiquitin-activating enzyme e1, putative (Leishmania donovani (strain BPK282A1))
- assay_text: Leishmania donovani Ubiquitin Activating Enzyme (LdE1)
- Type: functional
- Design: scale not given: direction of the effect not stated beside the values
- stated_conditions: 30 µM
Measured potencies and affinities stand elsewhere.
One number for each entry, in %.

As a guide, the following entries are already answered.
O=C(NCc1ccco1)C1CCCN1Cc1nc(-c2ccco2)no1 (centres undefined)
13.5
COCCNC(=O)CN1CCN(c2nc(C)cs2)C(C)C1 (centres undefined)
16.2
Cc1cc(C)c(CNC(=O)N2CCN(c3cnccn3)CC2)c(=O)[nH]1
18.4
c1ccc2oc(CCCN3CCOC(Cn4cccn4)C3)nc2c1 (centres undefined)
5.2

Answer for every listed entry: what is its Percent Effect? The entries follow.
1. O=C(c1ccoc1)N1CC[C@@H]2[C@H]1CCC(=O)N2c1ccccc1
2. O=C(c1ccc(F)cc1F)N1CC[C@H](O)[C@@H](N2CCOCC2)CC1
3. Cc1cc(C(=O)NCc2ccc(N3CCCC(C(N)=O)C3)cc2)[nH]n1 (centres undefined)

## Result
1: 10.7; 2: 6.67; 3: 10.7

Answer for every listed entry: what is its Percent Effect? The entries follow.
1. CN(Cc1nc2c(cnn2C)c(=O)[nH]1)Cc1ccc(F)cc1F
2. Cc1nc(C)n(CC2CCCN(Cc3ccc(C(N)=O)cc3)C2)n1 (centres undefined)
3. CC(=O)N1CCCC1c1ccc(C(=O)N2CCOCC2)s1 (centres undefined)
4. CCN1CCN(CC(O)c2ccc(OC(F)(F)F)cc2)CC1 (centres undefined)
5. Cc1nc(CN2CCN(Cc3nccn3C)CC2)no1
6. Cc1nc(CN(Cc2cccs2)C2CCS(=O)(=O)C2)oc1C (centres undefined)
7. Cc1ccc(CN2CCc3c(C(=O)N(C)C)nn(C)c3C2)s1

## Result
20.5
5.2
-2.7
16.2
8
15.8
8.22

Answer for every listed entry: what is its Percent Effect? The entries follow.
1. COc1c(C2CCCN2Cc2c(C)noc2C)c(C)nn1C (centres undefined)
2. Cc1c(F)cccc1CN1CCn2nc(CNC(=O)N(C)C)cc2C1
3. COc1cc(NC(=O)Cn2ccc3sc(C)cc3c2=O)cc(OC)c1
4. CC(CCc1ccco1)NC(=O)Nc1cc(C(F)(F)F)c[nH]c1=O (centres undefined)
5. c1ccc(-n2ncc(CNC3CCc4ncnn4C3)n2)cc1 (centres undefined)
6. COc1ccc(OCCNCCn2cccn2)cc1
7. CC(C)c1nn(C)c(N(C)C)c1CNCc1cccc(CN(C)C)c1

## Result
1. -2.67
2. 10.8
3. 0
4. 7.89
5. 10.3
6. 1.27
7. 18.4

Answer for every listed entry: what is its Percent Effect? The entries follow.
1. Cc1noc(C)c1C(=O)NCc1ccc(N2CCOC(C)C2)nc1 (centres undefined)
2. Cc1nc(-c2ccsc2)ccc1C(=O)NCCN1CCOCC1
3. c1cnc(N2CCOCC3(CCCN(CC4CC4)C3)C2)cn1 (centres undefined)

## Result
1. 21.3
2. 10.5
3. 5.33
